# methodSummary: clinical
# cond: human, in vivo
Output schema: class label derived from Vd. Mapping: low end: < 0.7 L/kg; middle: ≥ 0.7 L/kg and < 2 L/kg; high end: ≥ 2 L/kg

# molecule, classification
rows = [
    ("COc1ccc2c(c1)c(CC(=O)O)c(C)n2C(=O)c1ccc(Cl)cc1 [INDOMETHACIN]", "low end"),
    ("COC(=O)CCc1ccc(OCC(O)CNC(C)C)cc1 (centres undefined) [ESMOLOL]", "middle"),
    ("C[C@H]1COc2c(N3CCN(C)CC3)c(F)cc3c(=O)c(C(=O)O)cn1c23.C[C@H]1COc2c(N3CCN(C)CC3)c(F)cc3c(=O)c(C(=O)O)cn1c23.O [LEVOFLOXACIN]", "middle"),
    ("CCC1(c2ccccc2)C(=O)NC(=O)NC1=O [PHENOBARBITAL]", "low end"),
    ("CCN1CCCC1CNC(=O)c1cc(S(N)(=O)=O)ccc1OC (centres undefined) [SULPIRIDE]", "high end"),
    ("COCCOC(=O)C1=C(C)NC(C)=C(C(=O)OC(C)C)C1c1cccc([N+](=O)[O-])c1 (centres undefined) [NIMODIPINE]", "middle"),
    ("COC1=CC(=O)C[C@@H](C)[C@]12Oc1c(Cl)c(OC)cc(OC)c1C2=O [GRISEOFULVIN]", "middle"),
    ("COc1c(N2CCNC(C)C2)c(F)cc2c(=O)c(C(=O)O)cn(C3CC3)c12 (centres undefined) [GATIFLOXACIN]", "middle"),
]

Now consider the entry below.
Looking at CN1CCOC(c2ccccc2)c2ccccc2C1 (centres undefined) [NEFOPAM] , which class would you pick?
high end
